assayMethodText: soluble on expression in E. coli; label from the status in PepcDB or PDB records

sequenceString	soluble on expression in E. coli
SAAETRNVAGAEAPPPQKRYYRQRAHSNPMADHTLRYPVKPEEMDWSELYPEFFAPLTQNQSHDDPKDKKEKRAQAQVEFADIGCGYGGLLVELSPLFPDTLILGLEIRVKVSDYVQDRIRALRAAPAGGFQNIACLRSNAMKHLPNFFYKGQLTKMFFLFPDPHFKRTKHKWRIISPTLLAEYAYVLRVGGLVYTITDVLELHDWMCTHFEEHPLFERVPLEDLSEDPVVGHLGTSTEEGKKVLRNGGKNFPAIFRRIQDPVLQAVTSQTSLPGH	soluble
MGSDKIHHHHHHMLSIAIAAEFELSEKIVETLEQTQLEIESLTIIEIKPFKEEQGIRFNNKAVVQIMPEEADWTEFNYVLFAGTIEHVDLLAKIADSGCIVIDVLGICASLANIPVVVPGINDDQLIELRQRNIVSLPNPQVTQCALAISNIVNSIHQLVVTSLLPASYVEAEQVAKLAGQTAQLLNGIPLDTEQQRLAFDVFPVQTQNLVIQLQKIYPQLENIVFHQIQVPVFYGMGQFVTALSDYLVDIESQLHFWQENELIQYHAEKLITPVTHGENENNEEKVKLHISTLSAAENKIEFWSVADEQHFNLALMAVKLLELIG	not soluble
MFDPREKIALFIDGANLYAASKSLGFDIDYRKLLKAFQKRGYLLRAYYYTALIEDQEYSSIRPLIDWLDYNGYKVVTKPAKEFTDSLGRRKIKGNMDIELAIDAMEQSESVDHLVIFSGDGDFTTLVEALQRKGRKVSVVSTMSTQPPMIADDLRRQADHFIDLATLRGEIGREPSERVQRPVEPVADDVEL	not soluble
MSLTQRITMEDIARQSGVSLATVSLVLRDKPGINDETRRRVLDIARDLGYRKRLNHEKLVSQSLHNAGVIVKASIGDDSPLTNPFYAPIVAGIEAACRKMHINLMYATVPVDMDNHPQEMPRLLSEDHLDGVLLVGAFADATITKLLQREGIPAVLVDGYSHEHVYDSVVSDNFRAAYEAVSYLISYGHRHIGLIGTTKEAYPSIAERRKGYIQALTDHGIHDQYFGDCLLTMHEGSDTSSILLQRHPQITALFCANDMMAIGATQAARALHRQIPQDLSIIGFDNIDLAQHVAPALTTMHVDKVSMGRFAVQLLANRAEYPDQAPATVSLRPRLLERQSVQREGHHHHHH	soluble
MGSDKIHHHHHHMPEPKQETDFTAPAFRWENQQLKAIYTPKNIYLDDLKGIERQKEKIIQNTLQFLNGLPANDVLLTGSRGTGKSSIVRALLTEYAPQGLRLIEIERDDLADLPKIQKIIQNRPEKYIVYCDDLAFNAEDENYRSLKSVLDGSLQSGSTNFIIYATSNRRHLLPEFMHENTPVTKVDVPQYTELHPQEAIEEKISLSDRFGLWLSFYPMDQNLYLEIVEHYLDKANMPFNDEVRAESLRWCQMRGQRSGRAAYQFSKHWIGLNALKDLSNN	not soluble

* * *

assayMethodText: soluble on expression in E. coli; label from the status in PepcDB or PDB records

sequenceString	soluble on expression in E. coli
MTTNIAANSGGIVFHFLGTGGAQQVPAFGCECEVCQQAQRNESKRRRACCAAITTKDRIILIDAGLPELSPYLLPYPQRHILLTHYHMDHVQGLFPLRWGYGEPIPVFGPPDEAGCDDLFKHPGILHFQKPLMAFQPFELDGIRITPVPLIHSKLTYGYLIQTPTHTLAYLTDTIGLPPETTQFLASHTLDYAIVDCSHPPQTMLPRNHNDITRALEIFTQLNPKQLYLTHISHELDRWLQTQTLLPENVHAAYDGLVLGLLEHHHHHH	not soluble
ETMVGSFRDTTDKWLSQRLAADIYIYPTNNSAGRMSAWLQDQPEVESVWWRWEKDVPTEHGALQVVSTGPSEGELDSLTVKLGVPNYWYQLHQTKSLMVSESMALKLDIRPGDYIDLQAPLGEGWQVVGVYYDYGNPYNQVMMSHRN	not soluble

* * *

assayMethodText: soluble on expression in E. coli; label from the status in PepcDB or PDB records
readoutKind: soluble on expression in E. coli

sequenceString	readoutKind	result
MGSDKIHHHHHHMANVKWTMKAREFVNCNCAYGCPCQFNAMPTHGFCQAVTGIEIESGHHGATKLDGLRLVGIFRWPGAIHQGGGEAAVVVDERASEAQREALLRILGGQDTKPGATIFEVFSTTLEKFHDPIFAPIEFEVDVDARTGRLHVEGVADGHGEPIKNPVTGAEHRARIDLPHGFEYAMAEIGRGWTKATGPIKFEVADTHSHFANLHLTQSGVVH	soluble on expression in E. coli	not soluble
RELIHFAHGNGFPSLCYKQLLEQLETRFDCCFIDKIGHDPDYPVGENWHNLVAEIIASIKRQAEQPVIAVGHSLGGVLSLLAAIEQPKLFKAVIMLDSPLIGAFKSSMVRLAKALGIIDRVTPAFRTKKRREHWQNYEQLISYLKTRDLFKTFTEECLNDYIKYGLQYKEDGYYLRFDRHVEYQIYRTIPHVIPRYKGKLIVPAALIYGDKSTVVDRMDIRYMKNHFNVKCFKTMGTHLFPMEHPKAVGKQVIEVIDAII	soluble on expression in E. coli	not soluble
MREKFYEKYYYAKSDIEGQDGGVVTAFLKYLLENGKIDGAIVVGDECWKPVSLVVQNAEDLLKTAKSKYAISTLDALRKAGEMGLEKVALEHHHHHH	soluble on expression in E. coli	not soluble

* * *

assayMethodText: soluble on expression in E. coli; label from the status in PepcDB or PDB records

sequenceString	soluble on expression in E. coli
MGSDKIHHHHHHMTTASTVYHYCGAESFFSIVRNGRLWVSDARKTNDRRELEWFKDLALKHIAKSAATGDKMLSDLHLALKVRFELLEDVSDYYVCCFSEKKDSVPQWVAYADRGTGFAIGFDVNALRKKIGAALLSPSYAPVPFGVGANGWGFGPVAYAEEGVANAQIDDLMSTIVSAPFVGEDVTDSARDHIDRVCAFCKHPDFQTEHEWRIVCNTSFLKKNAGLTGTDMLPDTKWRKGGYGLTPYRETVDVLDCVKEVIVGPGNADRDSIEYVKQFLRFSGVKAEVFLSVSPYR	not soluble
MGSDKIHHHHHHMNEEEDAFSYLSKLGLTPYEIKVYKTLLIYGPNSATETAKLSKVPQPRVYDIFESLESKGAVEVSPGKRKIYRAVPIDNFIDRKLIEIRDYKKRIESYIEQQKKFKESNPYLWMIKNNFQIREKMKDVINEAENELIASLNYENIRYLKKYFIDAAKRGITVVIVAFPDAELDFLRTFPEDIVIRIRRGSASQVMIADRKHGLINVESTEDSEGYALYFDENELIHILNYYFYHTIWGPSDMFHDFPVRQNIKFSTAWLSCEAIDSFFKRSYSVSGIVTGYSATGQVKIEGTITGIDLIPGFKHTFFIKDNERVYSVGGKTARMEDIKLETLTMNVWIPNKQAISQKQ	not soluble

* * *

assayMethodText: soluble on expression in E. coli; label from the status in PepcDB or PDB records

sequenceString	soluble on expression in E. coli
MRKLISTIIVSTLLIGGCSTVHKEAKHSSQSIPEEVPASQYKGQGFQPVAEKSAIAHAKKYREEYEKLGEQFFKDNFSLNVKATNVVGSGDGVEVYVHCDDHDIVFNASIPFDKEAIHEEGSMRSNDNGDTMSNMVGTVLSGFEYKAQKEKYDNLTKFFKDNEEKYQYTGFTKEAIHKTQNVGYQNEYYYLAGNVTNINNYRKYYEPLIKKDSKNFKEGMKKANEATNFKAKIEVVSTLFSTKSDFTKNNSKKDLLFLSDDLYHYKEKPENTNITLQLSEPKINSTRAFYDANNPLEYGVHKHELEHHHHHH	soluble
MHVFYSEERRGNLLILREGEVKHFRVRRIEKDEEFGVIHEGKIYVCKVRREDKREISCEIVEELETKLPPKDITLYQSVTVDLKTMDTIVRQATELGVLTFVPIISERSFQKEEAILKKTEKWKRIVIEAMKQSRRPIPMEIKKPVRLSDLIPESEENIILDNFYEGVKPKDVNLEAKTYSVVVGPEGGFSKRESQILREKGFKSVLLEPYTLRTETAVVSIVSILMNFLEHHHHHH	soluble

* * *

assayMethodText: soluble on expression in E. coli; label from the status in PepcDB or PDB records

sequenceString	soluble on expression in E. coli
MIAVQRAVESRSIPPKAIVPVYVATSRMIQNNYSQPYGAERSNKVHYNRVDVGIPQKHVKGVVETNAYKPTHDKYFAAVALQKYDNKEQFKQQLNADLEKKTPGKREIFLFIHGYNNNFADGTFRTAQFTYDYSLNVVTVHYSWPSAGSVPLYIYDRDSANFARDGLIELLTLISETKADQISVIAHSMGNFVIMEAFRTLALQGKYKPIQRITSFLMAAPDIDIDVFERQLNDIKKLPQPTAILVSRADKALAVSGRLTGGHHRVGDGSDIEMLRKNGIAVLDFSNVDGGAHNVFASSPTLMALAREGSLASTIMQGTELSPSQALLADSSSVLEKTTHLILYTPLRLLSPLTRQ	not soluble
MTESDDHKLVLAISSRALFDLRDSHAVYMAEGVEAYRKYQIEHEDEILERGDAFTLVEKLLNLNASLSKARVEVVLVSRNSADTGLRVFNSIQHYGLDIARAAFAGGRSPYPYLAAFGCHLFLSTHAEDVRSALDAGFAAATILSGGARRAASAELRIAFDGDAVLFSDESERVYQSGGLAAFQASERESAREPLRGGPFKPFLAALNQLQREFPDASCPIRTALVTARSAPAHERVIRTLREWDIRLDESLFLGGLQKSAFLEAFAADVFFDDQPGHCEKAREVVATGHVPHGISNEIIPFDGGGAAALEHHHHHH	not soluble
